FYI, the data here is from PubChem BioAssay.

system: Inhibin beta A chain (activin A); test: INHBA (activin A) binders on microarrays, primary screen, biochemical, small-molecule microarray, 635 nm fluorescence scan (AID 1107); settings: small-molecule microarray binding, higher = more signal;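 further: mouse activin A protein probed at 4.33 µg/mL on printed slides; score merges bound-protein fluorescence near 667 nm with spot signal-to-noise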

{"Smiles Code": "CO[C@@H]1COC(=O)[C@@H](C)COC(=O)[C@@H](C)NC(=O)CC=C[C@@H]1C", "composite z-score": 0.675}
{"Smiles Code": "CO[C@H]1COC(=O)[C@@H](C)COC(=O)[C@H](COCc2ccccc2)NC(=O)CC=C[C@H]1C", "composite z-score": 2.01}
{"Smiles Code": "Cn1c(=O)n2n(c1=O)[C@H]1[C@H](O)[C@@H]3O[C@@H]3C(=NOCc3ccccc3)[C@H]1CC2", "composite z-score": -0.241}
{"Smiles Code": "C=CC[C@@H]1C=C[C@H](ON=C(C)CCN2CCc3nc(-c4ccccc4)c(-c4ccccc4)cc3C2)[C@@H](CO)O1", "composite z-score": 1.07}
{"Smiles Code": "CCCCc1nc2c(c3c1C[C@H](C)OC3)CN(CCOc1ccccc1)CC2", "composite z-score": 0.765}

----------
The entries below are paired with their reported composite z-score.
assay: binders of probe aFST on microarray, primary screen, stem cell growth factor project, biochemical, small-molecule microarray, fluorescence 635/667 (AID 1086); details: higher = more signal;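 further: score merges 667 nm fluorescence with signal-to-noise of each printed compound spot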

{"Compound": "CCN1C(=O)[C@H]2[C@H]3[C@H](O)[C@H](O)CC(=O)[C@@H]3CC[C@H]2C1=O", "composite z-score": 0.276}
{"Compound": "CCOC(=O)C1=NO[C@]2(C=C(Br)C3(OCCCO3)[C@H]3O[C@H]32)C1", "composite z-score": -0.132}
{"Compound": "C[C@@H]1CC[C@H]2C(=O)O[C@@H](Cc3ccccc3)CN2[C@H]1c1ccc(Br)cc1", "composite z-score": 0.384}
{"Compound": "CC(=O)OC[C@H]1O[C@@H](ON=C(C)CCN2CCCc3nc(C)c(C)cc32)[C@H](OC(C)=O)[C@@H](OC(C)=O)[C@@H]1OC(C)=O", "composite z-score": 0.139}
{"Compound": "COc1cccc([C@H]2Oc3ccc(OC)cc3C(=NOC[C@@H](C)[C@H](OCc3ccccc3)C(C)C)[C@@H]2O)c1", "composite z-score": 1.33}
{"Compound": "O=c1n(-c2ccccc2)c(=O)n2n1CC[C@@H]1C(=NOCc3ccccc3)[C@H]3O[C@H]3[C@@H](O)[C@@H]12", "composite z-score": -0.0869}
{"Compound": "CC(C)=CCCC(C)=CCON=C1C[C@@H](O)[C@@H](O)[C@@H]2[C@@H]3C(=O)N(C(C)(C)C)C(=O)[C@@H]3CC[C@H]12", "composite z-score": -0.0538}
{"Compound": "C[C@H]1CC[C@H]2C(=O)OC(CO)CN2[C@@H]1c1ccc(Br)cc1 (stereo partly drawn)", "composite z-score": -0.104}

----------
Recorded z-score values for a group of compounds are listed next.
assay: basal RPMI8226 viability, no added stimulus, profiling panel, cell-based, calcein-AM fluorescence, 48 h, PK04 Diversity Set (AID 1166); details: RPMI8226 myeloma viability, higher = more signal;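 further: cells grown under basal conditions without added stimulus; test concentration not given here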

{"Compound": "CCCCc1nc2c(c3c1C[C@H](C)OC3)CN(CCOc1ccccc1)CC2", "z-score": -0.657}
{"Compound": "C#CCCCON=C1C[C@@H](O)[C@@H](O)[C@@H]2[C@@H]3C(=O)N(C(C)(C)C)C(=O)[C@@H]3CC[C@@H]12", "z-score": 0.381}
{"Compound": "CCN1C(=O)[C@H]2[C@H]3[C@H](O)[C@H](O)CC(=NOC[C@H]4O[C@H](c5ccccc5)C=C[C@@H]4Oc4ccc(OC)cc4)[C@@H]3CC[C@H]2C1=O", "z-score": -2.23}
{"Compound": "CO[C@@H]1C=CCC(=O)N2CCC[C@H]2C(=O)OC[C@@H](C)C(=O)OC[C@H]1C", "z-score": -0.267}
{"Compound": "CCOC(=O)[C@H](CC(C)C)NC(=O)CCC1CC(OC(=O)NCc2ccc3c(c2)OCO3)CC2(CCCC(COC(=O)NCCCN3CCCC3=O)O2)O1 (some centres undefined)", "z-score": 0.514}
{"Compound": "C[C@@H]1C=CCC(=O)OC[C@H]2O[C@@H](C=C[C@@H]2O)[C@H](C)C=CCC(=O)OC1", "z-score": 0.72}
{"Compound": "CCOC(=O)[C@H](Cc1ccccc1)NC(=O)CCC1CC(OC(=O)NCc2cccc3ccccc23)CC2(CCCC(COC(=O)NCc3cccc(C(F)(F)F)c3)O2)O1 (some centres undefined)", "z-score": 0.607}
{"Compound": "O=C1[C@H]2[C@H]3[C@H](O)[C@H](O)CC(=NOCc4ccccc4)[C@H]3CC[C@H]2C(=O)N1Cc1ccc2c(c1)OCO2", "z-score": -1.69}
{"Compound": "CCOC(=O)NN=C1C[C@@H](O)[C@@H](O)[C@@H]2[C@@H]3C(=O)N([C@@H](C)c4ccccc4)C(=O)[C@@H]3CC[C@H]12", "z-score": -0.177}
{"Compound": "CCOC(=O)[C@H](CC(C)C)NC(=O)CCC1CC(OC(=O)NCCc2ccc(F)cc2)CC2(CCCC(COC(=O)NCCc3ccccc3OC)O2)O1 (some centres undefined)", "z-score": -1.41}
{"Compound": "CO[C@H]1COC(=O)CC=C[C@H](C)[C@@H](OC)COC(=O)[C@H](C)COC(=O)CC=C[C@@H]1C", "z-score": -1.03}
{"Compound": "CCOC(=O)[C@H](CC(C)C)NC(=O)CCC1CC(OC(=O)NCc2ccc3c(c2)OCO3)CC2(CCCC(COC(=O)NCc3cccc(C(F)(F)F)c3)O2)O1 (some centres undefined)", "z-score": -3.36}
{"Compound": "C[C@@H](c1ccccc1)N1C(=O)[C@H]2[C@H]3[C@H](O)[C@H](O)CC(=NOCc4ccccc4)[C@H]3CC[C@H]2C1=O", "z-score": 0.13}
{"Compound": "COc1ccc(O[C@H]2C=C[C@@H](c3ccccc3)O[C@@H]2COC(=O)CCC(C)=NOC[C@@H](O)[C@H]2O[C@@H]3OC(C)(C)O[C@@H]3[C@H]2O)cc1", "z-score": -0.0547}
